tested on: 521955-158-R2-J5-PDC complex spheroids, viability; experiment: Anticancer human tumor 521955-158-R2-J5-PDC patient-derived pancreatic carcinoma cell line growth inhibition [RAS]; conditions: curve of first compound; second compound 0.003 µM;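 further: compound exposure lasted seven days before the viability read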
Kindly state IC50 for each of the entries shown.

Ask: State the recorded IC50 for this entry: CC(C)NCC(C(=O)N1CCN(c2ncnc3c2C(C)CC3O)CC1)c1ccc(Cl)cc1 (stereo not drawn) + CCn1c(-c2cc(N3CCN(C)CC3)cnc2C(C)OC)c2c3cc(ccc31)-c1csc(n1)CC(NC(=O)C1CC1C)C(=O)N1CCCC(N1)C(=O)OCC(C)(C)C2
Result: < 31.6 nM

Ask: For CC(Nc1ccc2c(c1)OCCn1cc(N3C(=O)OCC3C(F)F)nc1-2)C(N)=O (stereo not drawn) + CCn1c(-c2cc(N3CCN(C)CC3)cnc2C(C)OC)c2c3cc(ccc31)-c1csc(n1)CC(NC(=O)C1CC1C)C(=O)N1CCCC(N1)C(=O)OCC(C)(C)C2 , what is its reported IC50?
Result: < 31.6 nM

Ask: Data request, read-out IC50, for CC(=O)OC12COC1CC(O)C1(C)C(=O)C(O)C3=C(C)C(OC(=O)C(O)C(NC(=O)OC(C)(C)C)c4ccccc4)CC(O)(C(OC(=O)c4ccccc4)C21)C3(C)C (stereo not drawn) + CCn1c(-c2cccnc2C(C)OC)c2c3cc(ccc31)N1CCOC(CC(NC(=O)C(C(C)C)N(C)C(=O)C3(F)CCN(C(=O)C#CC(C)(C)N(C)C)CC3)C(=O)N3CCCC(N3)C(=O)OCC(C)(C)C2)C1
Result: < 31.6 nM

Ask: Field request: IC50 | item: NC1c2ccccc2OC12CCN(c1cnc3c(N4CCCc5ncccc54)n[nH]c3n1)CC2 (stereo not drawn) + CCn1c(-c2cccnc2C(C)OC)c2c3cc(ccc31)N1CCOC(CC(NC(=O)C(C(C)C)N(C)C(=O)C3(F)CCN(C(=O)C#CC(C)(C)N(C)C)CC3)C(=O)N3CCCC(N3)C(=O)OCC(C)(C)C2)C1
Result: > 10000 nM

Ask: Which IC50 is reported for this compound? O=C(c1ccc(F)c(F)c1Nc1ccc(I)cc1F)N1CC(O)([C@@H]2CCCCN2)C1 + CCn1c(-c2cc(N3CCN(C)CC3)cnc2C(C)OC)c2c3cc(ccc31)-c1csc(n1)CC(NC(=O)C1CC1C)C(=O)N1CCCC(N1)C(=O)OCC(C)(C)C2
Result: < 3.16 nM

Ask: Fill blank: measured IC50 of the compound C=CC(=O)Nc1cc(Nc2nccc(-c3cn(C)c4ccccc34)n2)c(OC)cc1N(C)CCN(C)C + CCn1c(-c2cc(N3CCN(C)CC3)cnc2C(C)OC)c2c3cc(ccc31)-c1csc(n1)CC(NC(=O)C1CC1C)C(=O)N1CCCC(N1)C(=O)OCC(C)(C)C2 is ____.
Result: < 3.16 nM

Ask: Requested field: IC50. Item: C=CC(=O)Nc1cc(Nc2nccc(-c3cn(C)c4ccccc34)n2)c(OC)cc1N(C)CCN(C)C + CCn1c(-c2cccnc2C(C)OC)c2c3cc(ccc31)N1CCOC(CC(NC(=O)C(C(C)C)N(C)C(=O)C3(F)CCN(C(=O)C#CC(C)(C)N(C)C)CC3)C(=O)N3CCCC(N3)C(=O)OCC(C)(C)C2)C1
Result: 755 nM

Ask: Which IC50 value is on record for CC(C)n1nc(-c2ccc3oc(N)nc3c2)c2c(N)ncnc21 + CCn1c(-c2cc(N3CCN(C)CC3)cnc2C(C)OC)c2c3cc(ccc31)-c1csc(n1)CC(NC(=O)C1CC1C)C(=O)N1CCCC(N1)C(=O)OCC(C)(C)C2 ?
Result: < 0.316 nM
